Molecular target: glutathione-S-transferase (GST) tagged LXRbeta LBD (ligand binding domain) (Homo sapiens, UniProt P55055)
Construct: purchased Invitrogen pv4658
Sequence (P55055 222-460 limits assumed): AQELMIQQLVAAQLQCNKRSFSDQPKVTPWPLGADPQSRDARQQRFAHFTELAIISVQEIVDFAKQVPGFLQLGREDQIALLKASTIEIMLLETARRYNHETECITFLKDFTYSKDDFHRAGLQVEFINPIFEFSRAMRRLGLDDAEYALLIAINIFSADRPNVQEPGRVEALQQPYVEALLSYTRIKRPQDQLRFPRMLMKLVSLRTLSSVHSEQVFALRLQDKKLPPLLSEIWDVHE
Test: LanthaScreen TR-FRET Liver X Receptor Coactivator Assay, LXR beta
Format: biochemical
Details: LXR beta IP, potency (Inflection Point), compound-induced co-activator recruitment, TR-FRET
With a cut-off of 20 nM, any EC50 strictly below it is called 1 (yes); any EC50 meeting it or above is called 0 (no).

Query string: Decide: EC50 of COc1cccc(C(O)(C(=O)N2CCC(C(C)CC(C)COc3ccc(C(=O)N(C)C)c(Cl)c3)CC2)C(F)(F)F)c1 (single isomer, unassigned) [Example 31-2] strictly below 20 nM?
Result string: 1 (yes)

Query string: Quick check: does CN(C)C(=O)c1ccc(OCCCCC2CCN(C(=O)C(O)(c3ccccc3)C(F)(F)F)CC2)cc1Cl (single isomer, unassigned) [Example 3-8] have EC50 under 20 nM?
Result string: 1 (yes)

====

Listed here: items and their measured Emax.
molecular target: glutathione-S-transferase (GST) tagged LXRalpha LBD (ligand binding domain) (Homo sapiens, UniProt Q13133); construct: purchased Invitrogen pv4655; assay: biochemical; details: read-out: LXR alpha actiivty at max dose, efficacy (% Emax) in relation to reference dual agonist T0901317
Sequence (Q13133 209-447 limits assumed): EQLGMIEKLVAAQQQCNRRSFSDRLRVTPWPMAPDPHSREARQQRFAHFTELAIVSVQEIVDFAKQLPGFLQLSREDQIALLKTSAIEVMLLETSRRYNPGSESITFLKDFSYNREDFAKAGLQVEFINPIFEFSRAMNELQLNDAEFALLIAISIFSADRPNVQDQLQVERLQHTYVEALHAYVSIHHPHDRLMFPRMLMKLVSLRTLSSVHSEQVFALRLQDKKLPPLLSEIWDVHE
Give the value in % but do not write % after it.

Please review the following examples before continuing.
- compound: "CN(C)C(=O)c1ccc(OCCCC2CCN(C(=O)c3c(F)cccc3F)CC2)nc1Cl [Example 3-14]"
  Emax, %: 46
- compound: "O=C(N[C@H]1CCOC1)c1ccc(OCCCCC2CCN(C(=O)[C@](O)(c3ccccc3)C(F)(F)F)CC2)cc1Cl (single isomer, unassigned) [Example 8-6]"
  Emax, %: 35
- compound: "O=C(c1ccc(OCCCCC2CCN(C(=O)C(O)(c3ccccc3)C(F)(F)F)CC2)cc1Cl)N1CC(F)(F)C1 (single isomer, unassigned) [Example 8-4]"
  Emax, %: 18

Query string: Would you mind telling me what Emax value was observed for CN(C)C(=O)c1ccc(OCCC2CC23CCN(C(=O)C(C)(C)c2cccc(Br)n2)CC3)cc1Cl (single isomer, unassigned) [Example 12-20] ?
Result string: 0

Query string: Which Emax is reported for this compound? CN(C)C(=O)c1ccc(OCC[C@@H]2C[C@@H]2C2CCN(C(=O)OCc3ccccc3)CC2)nc1Cl (single isomer, unassigned) [Example 10-7]
Result string: 41

Query string: Recorded Emax of CN(C)C(=O)c1ccc(OCCCCC2CCN(C(=O)C(O)(c3ccccc3)C(F)(F)F)CC2)cc1Cl (single isomer, unassigned) [Example 3-8] , please.
Result string: 30

Query string: Quick check: Emax of CN(C)C(=O)c1ccc(OCC[C@@H]2CC23CCN(C(=O)[C@](N)(c2ccccc2)C(F)(F)F)CC3)cc1Cl (single isomer, unassigned) [Example 12-21] ?
Result string: 23

Query string: What does the record list as Emax for CN(C)C(=O)c1ccc(OCC2CC3(CCN(C(=O)C(O)(c4ccccc4)C(F)(F)F)CC3)C2)cc1Cl (single isomer, unassigned) [Example 33-1] ?
Result string: 42

Query string: So what does the record say about Emax for CN(C)CCCNC(=O)c1ccc(OCCCCC2CCN(C(=O)[C@](O)(c3ccccc3)C(F)(F)F)CC2)cc1Cl (single isomer, unassigned) [Example 8-19] ?
Result string: 36

Data provenance is patent US11655216B2.
